The following molecules are shown together with reported normalized growth values.
METHOD: chemical genetic growth profiling, strain panel (AID 1159580);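 further: tested at 20 µM; growth read once vehicle control cultures reached saturation at 30 °C; 1 = growth at the plate median or of vehicle wells; lower values mean less growth of the strain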
CONDITIONS_USED: S. cerevisiae deletion strains, growth OD, locus YDL185W, strain tfp1, hits give low values
The whole screen tested about 5,500 compounds, of which about 2,000 (36%) were called active. Inconclusive results (about 18%) are left out. Some of the results follow.
ENDPOINT_NAME: normalized growth

| MOLECULE | ENDPOINT_NAME | REPORTED_RESULT |
| --- | --- | --- |
| COc1cc2c(cc1OC)[C@@H]1C(=O)c3ccc4c(c3O[C@@H]1CO2)CC(C(C)C)O4 (stereo partly drawn) | normalized growth | 1.01 |
| COc1c2ccoc2cc2oc(C)cc(=O)c12 | normalized growth | 0.971 |
| C=C(C)[C@H]1Cc2c(ccc3c2O[C@@H]2COc4cc(OC)c(OC)cc4[C@@H]2C3=O)O1 | normalized growth | 1.02 |

---

METHOD: chemical genetic growth profiling, strain panel (AID 1159580)
CONDITIONS_USED: S. cerevisiae deletion strains, growth OD, locus YOR106W, strain vam3, hits give low values
The whole screen tested about 5,500 compounds, of which about 2,000 (36%) were called active. Roughly 18% stayed inconclusive and do not appear here. This is one part of the list.
Listed next: entries and their corresponding normalized growth.

| COMPOUND | normalized growth |
| --- | --- |
| COc1cc2c(cc1OC)[C@@]13CCN4CC5=CCOC6CC(=O)N2C1[C@H]6[C@H]5C[C@H]43 (stereo partly specified) | 0.997 |
| COc1c2ccoc2cc2oc(C)cc(=O)c12 | 0.994 |
| COc1cc2cc3c4cc(OC)c(OC)cc4cc[n+]3c(C)c2cc1OC | 0.981 |
| CC(=O)NS(=O)(=O)c1ccc(NC(=O)c2ccccc2C(=O)O)cc1 | 1.03 |
| Cc1onc(-c2ccccc2Cl)c1C(=O)N[C@@H]1C(=O)N2[C@@H]1SC(C)(C)[C@@H]2C(=O)O | 1.03 |
| CC1=CC2C(C(C)C)CCC(C)(O)C2CC1 (stereo unspecified) | 0.997 |
| CC1(C)S[C@@H]2[C@H](NC(=O)[C@H](C(=O)O)c3cccs3)C(=O)N2[C@H]1C(=O)O | 1 |
| CC[C@H]1CN2CCc3cc(OC)c(OC)cc3C2C[C@@H]1CC1NCCc2cc(OC)c(OC)cc21 (stereo partly specified) | 1.01 |
| CC(=O)OCC1=C(C(=O)O)N2C(=O)[C@@H](NC(=O)CCCC(N)C(=O)O)C2SC1 (stereo partly specified) | 0.999 |
| CCOC([O-])=Nc1c[n+](N2CCOCC2)no1 | 1.01 |
| CC(=O)Oc1ccccc1C(=O)O | 0.994 |

---

METHOD: chemical genetic growth profiling, strain panel (AID 1159580)
CONDITIONS_USED: S. cerevisiae deletion strains, growth OD, locus YNL298W, strain CLA4 (second series), hits give low values
In all, about 5,500 compounds went through this assay and about 2,000 (36%) were called active. Roughly 18% stayed inconclusive and do not appear here. Some of the results follow.
Recorded normalized growth for the following compounds

| COMPOUND | normalized growth |
| --- | --- |
| N#Cc1ccc(Oc2ccc(Cl)cc2)nc1 | 0.977 (inactive) |
| O=C1C=C(Cl)CC(c2ccc(C(F)(F)F)cc2)C1 (stereo not drawn) | 0.985 (inactive) |
| CSc1nc(N)nc(N2CCCCC2)n1 | 1.02 (inactive) |

---

METHOD: chemical genetic growth profiling, strain panel (AID 1159580)
CONDITIONS_USED: S. cerevisiae deletion strains, growth OD, locus YML124C, strain tub3, hits give low values
The whole screen tested about 5,500 compounds, of which about 2,000 (36%) were called active. Not shown: some 18% with an inconclusive outcome. The list shows a part of the results.
In this section, each of the compounds is paired with its reported normalized growth.

| COMPOUND | normalized growth |
| --- | --- |
| COP(=O)(OC)OC(Br)C(Cl)(Cl)Br (stereo unspecified) | 1.01 |
| COC(=O)[C@]1(C)CC[C@]2(C)CC[C@]3(C)C4=CC=C5C(=CC(=O)C(O)=C5C)[C@]4(C)CC[C@@]3(C)[C@@H]2C1 | 0.956 |
| CCOc1ccc(NC(C)=O)cc1 | 0.99 |
| O=c1[nH]cnc2c1ncn2C1O[C@H](CO)[C@@H](O)[C@H]1O (stereo partly specified) | 1.02 |
| CC[C@H]1CN2CCc3cc(OC)c(OC)cc3C2C[C@@H]1CC1NCCc2cc(OC)c(OC)cc21 (stereo partly specified) | 0.994 |
| C=C(C)[C@H]1Cc2c(ccc3c2O[C@@H]2COc4cc(OC)c(OC)cc4[C@@H]2C3=O)O1 | 1.01 |
| CC(=O)Oc1cc2c(c(C)c1OC(C)=O)CC1OC13C2(C)CCC1(C)C2CC(C)(C(=O)O)CCC2(C)CCC13C (stereo unspecified) | 1.02 |
| COc1ccc2c(=O)ccoc2c1 | 1.01 |
| NC(N)=NC(N)=Nc1ccccc1 | 0.991 |
| O=C(CCBr)N1CCN(C(=O)CCBr)CC1 | 0.991 |
| CCN(CC)CCNC(=O)c1cc(Cl)c(N)cc1OC | 1 |

---

METHOD: chemical genetic growth profiling, strain panel (AID 1159580);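 further: tested at 20 µM; growth read once vehicle control cultures reached saturation at 30 °C; 1 = growth at the plate median or of vehicle wells; lower values mean less growth of the strain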
CONDITIONS_USED: S. cerevisiae deletion strains, growth OD, locus YDL040C, strain nat1, hits give low values
In all, about 5,500 compounds went through this assay and about 2,000 (36%) were called active. Inconclusive results (about 18%) are left out. The list shows a part of the results.
Lab note: anything with normalized growth below 1 is marked 1; values at 1 or higher are marked -1.

| MOLECULE_SMILES | ANSWER_LABEL |
| --- | --- |
| COc1ccc(-c2oc3ccccc3c(=O)c2O)cc1OC | 1 |
| NC(=O)N1c2ccccc2C=Cc2ccccc21 | -1 |

---

METHOD: chemical genetic growth profiling, strain panel (AID 1159580);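 further: tested at 20 µM; growth read once vehicle control cultures reached saturation at 30 °C; 1 = growth at the plate median or of vehicle wells; lower values mean less growth of the strain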
CONDITIONS_USED: S. cerevisiae deletion strains, growth OD, locus YDR101C, strain arx1
In all, about 5,500 compounds went through this assay and about 2,000 (36%) were called active. Roughly 18% stayed inconclusive and do not appear here. No stated cut-off is given here; in the data, active means normalized growth mostly below about 0.91 (no sharp cut-off); inconclusive means no clear call, values can overlap the other calls; inactive means mostly above about 0.92. This is one part of the list.
Classes used: active, inactive

| COMPOUND | ANSWER_LABEL |
| --- | --- |
| CC[C@@H](CO)NC(=O)[C@@H]1C=C2c3cccc4[nH]cc(c34)C[C@H]2N(C)C1 | inactive |
| COc1ccc([C@H]2COc3c(ccc(O)c3OC)C2)c(OC)c1O | inactive |
| O=C(CCBr)N1CCN(C(=O)CCBr)CC1 | inactive |
| CC1(C)C=Cc2cc3ccc(=O)oc3cc2O1 | inactive |
| CCOc1cccc(C(=O)c2ccc(O)c(O)c2O)c1 | active |
| COc1c2c(cc3c1OCO3)C13C=C[C@H](OC)CC1N(C2)CC3O (some centres undefined) | inactive |
| COc1cc(O)cc(OC)c1OC | inactive |
| Cc1c(NC(=O)c2cccnc2)c(=O)n(-c2ccccc2)n1C | inactive |
| COc1cc(-c2coc3cc(O[C@@H]4O[C@H](CO)[C@@H](O)[C@H](O)[C@H]4O)c(OC)c(O)c3c2=O)cc(O)c1OC | inactive |

---

Consider the following compounds and their measured normalized growth readings.
METHOD: chemical genetic growth profiling, strain panel (AID 1159580);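 further: tested at 20 µM; growth read once vehicle control cultures reached saturation at 30 °C; 1 = growth at the plate median or of vehicle wells; lower values mean less growth of the strain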
CONDITIONS_USED: S. cerevisiae deletion strains, growth OD, locus YLR039C, strain RIC1, hits give low values
Hit rate of the full screen: of about 5,500 compounds, about 2,000 (36%) were called active. Inconclusive results (about 18%) are left out. The list shows a part of the results.

| COMPOUND | normalized growth |
| --- | --- |
| O=C(O)c1nccnc1C(=O)O | 1.01 |
| CCN(CC)CCNC(=O)c1cc(Cl)c(N)cc1OC | 0.996 |
| CC1=NN(c2cccc(S(N)(=O)=O)c2)C(=O)C1 | 0.975 |
| COc1c2c(cc3c1OCO3)C13C=C[C@H](OC)CC1N(C2)CC3O (stereo partly drawn) | 1 |
| CC(=O)OCC(=O)[C@@]1(O)CCC2C3CC[C@@H]4C[C@H](OC(C)=O)CC[C@]4(C)C3C(=O)C[C@@]21C (stereo partly drawn) | 1.02 |
| CC(=O)OC1CCC2(C)C3CC(=O)C4(C)C(CC5OC6(CCC(C)CO6)[C@@H](C)C54)C3CC[C@H]2C1 (stereo partly drawn) | 0.994 |
| C=C(C)[C@@H]1CC[C@]2(CO)CC[C@]3(C)[C@H](CCC4[C@@]5(C)CC[C@H](O)C(C)(C)C5CC[C@]43C)C12 (stereo partly drawn) | 1.02 |
| CN(C(=O)Nc1ccccc1)n1cnc2ccccc2c1=O | 1 |
